# Assay type: in vivo, human
# measurement.setup: human, plasma, iv, 50 mg
assay.endpoint: Tmax (h)
Express the result in h but write the number alone.

Report Tmax for CN1CC[C@@H](NC(=O)Nc2ccc(C#N)cc2)C[C@@H]1c1nc2ccccc2[nH]1 please. 1.27

###

# Type: in vivo, human
# measurement.setup: human, plasma, iv, 50 mg, AUC0‐last, geometric mean (geometric CV, %), 50 mg IV, single dose, fasted
assay.endpoint: AUC
Don't forget the unit after the value.

Report AUC for CN1CC[C@@H](NC(=O)Nc2ccc(C#N)cc2)C[C@@H]1c1nc2ccccc2[nH]1 please. 4780 ng·h/mL

###

# Format: in vivo, human
# measurement.setup: human, plasma, iv, 50 mg, AUC0‐∞, arithmetic mean ± SD, 50 mg IV, single dose, fasted
assay.endpoint: AUC (ng·h/mL)
Express the result in ng·h/mL but write the number alone.

Report AUC for CN1CC[C@@H](NC(=O)Nc2ccc(C#N)cc2)C[C@@H]1c1nc2ccccc2[nH]1 please. 5220
